test system: MDA-MB-231; experiment: Cell viability by MTT assay, MDA-MB-231; type: cell-based; settings: Homo sapiens, growth inhibition, 72 h, mean ± SEM
Criterion: IC50 strictly under 4 µM. Met: Met. Not met: Not met.

(Q) Here's an entry: Clc1cccc(-c2nn3c(-c4c[nH]c5ccccc45)nnc3s2)c1 . Is its IC50 below 4 µM?
(A) Not met

(Q) Here's an entry: Brc1ccc(-c2nn3c(-c4c[nH]c5ccccc45)nnc3s2)cc1 . Is its IC50 below 4 µM?
(A) Not met

(Q) Here's an entry: COc1ccc(-c2nn3c(-c4c[nH]c5ccccc45)nnc3s2)c(OC)c1 . Is its IC50 below 4 µM?
(A) Met

(Q) Here's an entry: Ic1ccc(-c2nn3c(-c4c[nH]c5ccccc45)nnc3s2)cc1 . Is its IC50 below 4 µM?
(A) Met

---

# Lookup of reported pIC50 keyed by entry
molecular target: His-tagged Bcl-2 protein (Homo sapiens, UniProt P10415); test: Competitive ELISA binding assay (interruption of Bcl-2-Bim interaction); conditions: competition with Bim peptide; mean and SEM of three independent measurements
Sequence (P10415 whole entry): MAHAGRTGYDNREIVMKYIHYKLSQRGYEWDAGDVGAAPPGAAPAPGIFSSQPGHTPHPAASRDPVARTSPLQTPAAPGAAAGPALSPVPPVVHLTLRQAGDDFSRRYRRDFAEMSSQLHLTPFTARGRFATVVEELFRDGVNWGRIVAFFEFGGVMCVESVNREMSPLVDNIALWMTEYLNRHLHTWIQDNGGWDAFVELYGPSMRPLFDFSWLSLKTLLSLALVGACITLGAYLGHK
Interpret pIC50 as the negative base-10 log of the concentration measured in mol/L.

These recorded examples may help you get a feel for the data.
{"Structure Smiles String": "Brc1ccc(-c2nn3c(-c4c[nH]c5ccccc45)nnc3s2)cc1", "pIC50": 5.34}
{"Structure Smiles String": "COc1ccc(-c2nn3c(-c4c[nH]c5ccccc45)nnc3s2)cc1", "pIC50": 5.94}
{"Structure Smiles String": "FC(F)(F)c1ccc(-c2nn3c(-c4c[nH]c5ccccc45)nnc3s2)cc1", "pIC50": 5.76}

(Q) Reported pIC50, compound COc1cc(OC)cc(-c2nn3c(-c4c[nH]c5ccccc45)nnc3s2)c1 : ____
(A) 6.35

---

Test system: HeLa
Assay: Cell viability by MTT assay, HeLa
Assay type: cell-based
Details: Homo sapiens, growth inhibition, 72 h, mean ± SEM
Experimental: Human breast cancer (MDA-MB-231) and cervical cancer (HeLa) cells, obtained from the ATCC (Manassas, VA, USA), were maintained as previously described. Cytotoxic effects of the tested compounds were assessed using MTT assay. Briefly, 4000 cells in 0.1 mL of medium (Life Technologies, Paisley, UK) were seeded and allowed to adhere for 24 h. […] The developed purple colour following the addition of DMSO was measured using a Multiskan Go machine (spectrophotometer) at 570 nm absorbance. […]
Experimental Endpoint: pIC50
Interpret pIC50 as the negative base-10 log of the concentration measured in mol/L.

{"Molecule": "Ic1ccc(-c2nn3c(-c4c[nH]c5ccccc45)nnc3s2)cc1", "Target System": "HeLa", "Experimental Endpoint": "pIC50", "Quantitative Result": 6.27}

(Q) Reported pIC50, molecule O=[N+]([O-])c1ccc(-c2nn3c(-c4c[nH]c5ccccc45)nnc3s2)cc1 : ____
(A) 4.66

(Q) Reported pIC50, molecule Cc1cc2c(C(C)C)c(O)c(O)c(C=O)c2c(O)c1-c1c(C)cc2c(C(C)C)c(O)c(O)c(C=O)c2c1O [Gossypol, gossypol, reference compound] : ____
(A) 5.35

(Q) Reported pIC50, molecule FC(F)(F)c1ccc(-c2nn3c(-c4c[nH]c5ccccc45)nnc3s2)cc1 : ____
(A) 5.57

(Q) Reported pIC50, molecule COc1ccc(-c2nn3c(-c4c[nH]c5ccccc45)nnc3s2)cc1 : ____
(A) 5.57
